# credit: patent US20170320960A1

Molecular target: T1, hMFI2 Tf-like Domain 2 (TLD2), amino acids 366-709, displayed on yeast (human, UniProt P08582 366-709)
T1 construct: also called TFLD2; transferrin-like domain 2
T1 sequence: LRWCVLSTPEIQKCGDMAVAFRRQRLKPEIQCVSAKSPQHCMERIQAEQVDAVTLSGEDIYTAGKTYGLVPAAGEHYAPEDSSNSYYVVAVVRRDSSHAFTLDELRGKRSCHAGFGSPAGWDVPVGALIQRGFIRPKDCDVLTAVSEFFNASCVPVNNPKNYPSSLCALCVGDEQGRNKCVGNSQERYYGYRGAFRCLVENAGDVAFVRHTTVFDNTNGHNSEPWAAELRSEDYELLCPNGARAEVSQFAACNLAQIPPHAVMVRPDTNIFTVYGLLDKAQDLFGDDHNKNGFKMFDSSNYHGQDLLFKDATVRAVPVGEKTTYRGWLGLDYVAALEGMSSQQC
Experiment: flow cytometry on yeast displaying hMFI2 domains
measured quantity: binding result

SC57.9 (antibody, V domains shown) VH: QVQLQQSGPELMKPGASVKISCKATGYTFSSYWIEWVKQRPGHGLEWIGEILPGSGSTEYNEKFKGKATFTADTSSNTAYMQLSSLTSEDSDVYYCARKRYGTMDYWGQGTSVTVSS VL: QIVLTQSPAIMSASPGEKVTITCSASSSVSYMHWFQQKPGTSPKLWIYTTSNLASGVPARFSGSGSGTSYSLTISRMEAEDAATYYCQQRSSFPPTFGSGTKLEIK: binds
SC57.4 (antibody, V domains shown) VH: EIQLQQSGPEMVKPGASVKVTCKASGYSFTDFNMHWMKQSHGKSLEWIGYIDPYKGGISYNQKFKGRATLTVDKSSSTAFMHLNSLTSDDSAVYYCARDYYGSRFPYYFDYWGQGTTLTVSS VL: DVVMTQTPLSLPVSLGDQASISCRSSQSLVHSNGNTYLHWYLQKPGQSPKLLIYRVSNRFSGVPDRFSGSGSGTDFTLKISRVEAEDLGVYLCSQSTHVPLTFGAGTKLELK: binds
